Test system: MOLT-4 leukemia
Test: NCI-60 one-dose screen, 48 h (100 = growth as untreated, 0 = no growth, -100 = all killed)
Settings: 10 µM unless noted
Procedure: Growth inhibition of the MOLT-4 human tumor cell line is measured as a screen for anti-cancer activity. Cells are grown in 96 well plates and exposed to the test compound for 48 hours. Compounds are tested at a single concentration, which is 10^-5 M for most compounds. The reported endpoint is percent growth (GI% or GIPRCNT), where numbers from 0 - 100% represent growth inhibition, and numbers from -100% - 0 represent cell death. For example, a value of 40 represents 60% growth inhibition. […]
This is part of a sample that, as a whole, favours compounds with a hit. Of some 83,000 tested, about 20% had one in any assay.
observed.property: growth (%)
The reply should be a number in %, with the unit left off.

Data request: Please give the measured growth for this compound: "CNCCCn1c2c(c3ccc([N+](=O)[O-])cc3c1=O)C(=O)c1cc(OC)cnc1-2"
Data returned: -10.9

Data request: Please give the measured growth for this compound: "CCCCCCCCCCNC(=O)CCl"
Data returned: 54.8

Data request: Please give the measured growth for this compound: "COc1ccc(/C=N\NC(=O)CN2CCN(c3cc4c(cc3F)c(=O)c(C(=O)N/N=C/c3ccc(OC)cc3)cn4C3CC3)CC2)cc1"
Data returned: 60

Data request: Please give the measured growth for this compound: O=C(O)C(O)C(O)C(=O)O.[NH-]C1CCCCC1[NH-].[Pt+2] (stereo unspecified)
Data returned: 105

Data request: Please give the measured growth for this compound: "Cc1cc2cc3cc(C)c(N(C)C)cc3nc2cc1N(C)C"
Data returned: 29.1

Data request: Please give the measured growth for this compound: "Cc1cc(=O)oc2cc(Oc3nc(-c4ccc(Cl)cc4)cn4c(-c5ccc(Cl)cc5)cnc34)ccc12"
Data returned: 74.5

Data request: Please give the measured growth for this compound: "NC(=S)N/N=C/c1cc(-c2cccc(N)c2)ccn1"
Data returned: 7.42

Data request: Please give the measured growth for this compound: CCCCN(CCCC)CCC(C)(O)c1cc2ccccc2c2ccccc12 (stereo unspecified)
Data returned: 37.5

Data request: Please give the measured growth for this compound: "CN1CCN(Cc2ccc(NC(=O)c3cncc(C#Cc4cncc5nccnc45)c3)cc2C(F)(F)F)CC1"
Data returned: 37

Data request: Please give the measured growth for this compound: "COc1ccc(-n2c(C)nc3c(c(C)nn3-c3ccccc3)c2=O)cc1"
Data returned: 12.2

Data request: Please give the measured growth for this compound: C=C1CCC2C3(C)COC(c4ccccc4Br)OC3CCC2(C)C1C/C=C1/C(=O)OCC1OC(C)=O (stereo unspecified)
Data returned: -45.5

Data request: Please give the measured growth for this compound: "O=C1C=CC(=O)N1c1ccc(Cc2ccc(N3C(=O)C=CC3=O)cc2)cc1"
Data returned: 21.8

Data request: Please give the measured growth for this compound: Nc1nc2c(c3ncccc13)C(c1cccc(Br)c1)Cc1ncccc1-2 (stereo unspecified)
Data returned: 7.86

Data request: Please give the measured growth for this compound: "COc1cc(-c2cc(-c3nc4ccc(Cl)cc4[nH]3)[nH]n2)cc(OC)c1OC"
Data returned: 4.79

Data request: Please give the measured growth for this compound: "CCCCCCCCOC(=O)CC[C@@H](C)[C@H]1CC[C@H]2[C@@H]3[C@H](OC(=O)CCN)C[C@@H]4C[C@H](OC(=O)CCN)CC[C@]4(C)[C@H]3C[C@H](OC(=O)CCN)[C@]12C"
Data returned: 26.1

Data request: Please give the measured growth for this compound: CC1CN(C(C)C)C(=S)N(c2ccccc2)C1=O (stereo unspecified)
Data returned: 90

Data request: Please give the measured growth for this compound: C=C1CCC2C3(C)COC(c4ccc(SC)cc4)OC3CCC2(C)C1C/C=C1/C(=O)OCC1O (stereo unspecified)
Data returned: 5.06

Data request: Please give the measured growth for this compound: "Cc1sc2nc3[nH]/c(=C\c4ccc(Cl)cc4)c(=O)n3c(=O)c2c1C"
Data returned: 94.1

Data request: Please give the measured growth for this compound: "COC(/C=C/c1ccc([N+](=O)[O-])cc1)OC"
Data returned: 69.4

Data request: Please give the measured growth for this compound: "COc1ccc(/C=C2\N=C3SC=C(N)N3C2=O)cc1"
Data returned: -15.9

Data request: Please give the measured growth for this compound: "Oc1ccccc1/C=N/Nc1ccc2ccccc2n1"
Data returned: 7.34

Data request: Please give the measured growth for this compound: "COc1ccc(C/C(C)=C(\c2ccc(Cl)cc2)c2ccc(OCCN3CCCCCC3)cc2)cc1"
Data returned: 58.7

Data request: Please give the measured growth for this compound: "CC(C)n1cc2c(N)ncnc2n1"
Data returned: 98.2

Data request: Please give the measured growth for this compound: "CCCCNc1ccc2c3c1cccc3c(=O)n1c3ccccc3nc21"
Data returned: 69.4

Data request: Please give the measured growth for this compound: "O=C(/C=C/c1ccc(Cl)cc1)/C=C/c1cc2ccccc2[nH]c1=O"
Data returned: 15.7

Data request: Please give the measured growth for this compound: "O=C1O[C@H]([C@H](O)CO)C(O)=C1O"
Data returned: 107

Data request: Please give the measured growth for this compound: "O=C(CO[N+](=O)[O-])Nc1ccc(C(=O)/C=C/c2ccc3c(c2)OCO3)cc1"
Data returned: 99.7

Data request: Please give the measured growth for this compound: "CCOc1ccc(Nc2nc(-c3c(C)nc4ncccn34)cs2)cc1"
Data returned: 8.54

Data request: Please give the measured growth for this compound: "C=CCSc1nnc(-c2ccc(C(C)(C)C)cc2)n1-c1cccc(C(F)(F)F)c1"
Data returned: 21.8

Data request: Please give the measured growth for this compound: "O=C(Nc1cccc2c1C(=O)c1cccc(Nc3cccc4c3C(=O)c3cccc(NC(=O)c5ccccc5)c3C4=O)c1C2=O)c1ccccc1"
Data returned: 104

Data request: Please give the measured growth for this compound: "Nc1ccc2c(c1)C(=O)NC2=O"
Data returned: 105

Data request: Please give the measured growth for this compound: "CCN(CC)CCCNc1cc(OC)cc2nc3cc(Cl)ccc3nc12"
Data returned: -26.2

Data request: Please give the measured growth for this compound: "COc1cc(NC(N)=NCC(C)(C)COc2ccc(C(F)(F)F)cc2)cnc1C#N"
Data returned: 15.6

Data request: Please give the measured growth for this compound: O=C1Nc2ccccc2C12CC(c1ccccc1)=NN2 (stereo unspecified)
Data returned: 38.7

Data request: Please give the measured growth for this compound: "COc1ccc2nc3cc(Cl)ccc3c(N3CCN(c4nccc(Nc5ccc(Cl)cc5)n4)CC3)c2c1"
Data returned: 3.98

Data request: Please give the measured growth for this compound: "CCOC(=O)c1c2c(n3ccc(NC(=O)CCN4CCCCC4)cc13)C(=O)c1ncccc1C2=O"
Data returned: -25.9

Data request: Please give the measured growth for this compound: C=C1CC2(OC1=O)C(=O)Nc1ccccc12 (stereo unspecified)
Data returned: 18.7

Data request: Please give the measured growth for this compound: "C#Cc1nc2ccccc2c(=O)[nH]1"
Data returned: -21.4

Data request: Please give the measured growth for this compound: "COc1ccccc1-c1ccc2c(N)c(C(=O)c3ccc4c(c3)OCO4)sc2n1"
Data returned: 36.6

Data request: Please give the measured growth for this compound: "CC1=C(NCCN2CCCC2)C(=O)c2c(OCc3cccc(Cl)c3)cccc2C1=O"
Data returned: 51.5

Data request: Please give the measured growth for this compound: "CCN(C(=O)CN1CCN(c2cc3c(cc2F)c(=O)c(C(=O)O)cn3C2CC2)CC1)c1nc(-c2ccc(OC)cc2)cs1"
Data returned: 70.6

---

Provide the recorded growth for the entries that follow.
system: COLO 205 colon; experiment: NCI-60 one-dose screen, 48 h (100 = growth as untreated, 0 = no growth, -100 = all killed); conditions: 10 µM unless noted
This is part of a sample that, as a whole, favours compounds with a hit. Of some 83,000 tested, about 20% had one in any assay.
The reply should be a number in %, with the unit left off.

Data request: Please give the measured growth for this compound: "C(=N\Nc1ccccn1)/c1ccccn1"
Data returned: 34.6

Data request: Please give the measured growth for this compound: CCOC(=O)C12CCCC1=CC(=O)CC2 (stereo unspecified)
Data returned: 108

Data request: Please give the measured growth for this compound: "CCOC(=O)c1cnc2ccc(Br)cc2c1Nc1cccc(S(=O)(=O)NC)c1"
Data returned: 128

Data request: Please give the measured growth for this compound: "COc1cc(NCCCCN=C(N)N)c2ncccc2c1"
Data returned: 82.6

Data request: Please give the measured growth for this compound: "NS(=O)(=O)c1ccc(-n2ncc3c(=O)[nH]c(CN4CCN(c5cc6c(cc5F)c(=O)c(C(=O)O)cn6C5CC5)CC4)nc32)cc1"
Data returned: 114

Data request: Please give the measured growth for this compound: "Nc1cccc(NC(=O)C(=O)Nc2cccc(N)c2)c1"
Data returned: 127

Data request: Please give the measured growth for this compound: CCN(CC)CCCC(C)NCCCNc1cccc2cccnc12 (stereo unspecified)
Data returned: 91.7

Data request: Please give the measured growth for this compound: CCCCCCCCCCCCCC(=O)C(C)N (stereo unspecified)
Data returned: 15.9

Data request: Please give the measured growth for this compound: "COc1cc(C#N)cc(OC)c1OCCN(CCOc1c(OC)cc(C#N)cc1OC)S(=O)(=O)c1ccc(C)cc1"
Data returned: 113

Data request: Please give the measured growth for this compound: "CCOC(=O)Cc1cnn(C)c1NC(=O)c1ccc(Cl)cc1NC(C)=O"
Data returned: 110

Data request: Please give the measured growth for this compound: "NC(=S)N/N=C/c1cc(-c2cccc(N)c2)ccn1"
Data returned: 25.5

Entry source: PubChem BioAssay (NCI)
